- assay-system: TRKA (NTRK1) recombinant His-tagged cytoplasmic domain aa 441-796 (Homo sapiens, UniProt P04629)
- Construct: aa 441-; 4 nM; 40 uM; 35 min; (NTRK1); 796; His
- Sequence (P04629 441-796): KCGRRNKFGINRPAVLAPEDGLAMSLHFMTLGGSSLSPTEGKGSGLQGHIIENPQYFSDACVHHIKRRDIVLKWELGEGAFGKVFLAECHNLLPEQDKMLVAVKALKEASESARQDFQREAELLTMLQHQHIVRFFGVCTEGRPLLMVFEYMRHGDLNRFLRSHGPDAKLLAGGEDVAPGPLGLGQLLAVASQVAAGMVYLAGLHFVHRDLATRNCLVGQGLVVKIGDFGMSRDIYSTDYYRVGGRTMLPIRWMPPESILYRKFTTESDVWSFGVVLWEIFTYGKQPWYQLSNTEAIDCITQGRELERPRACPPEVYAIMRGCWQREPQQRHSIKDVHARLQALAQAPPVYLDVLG
- test: Isolated TRK enzyme assay (HTRF KinEASE-TK), PV3144 TrkA
- measurement-context: 4 nM enzyme, 40 uM ATP, 35 min, arithmetic mean where more than one reading
pIC50: −log10 of the molar value.
# pIC50 annotations
observation-type: pIC50

{"smiles-notation": "CC(C)n1nc(C(=O)c2ccnc(NC(=O)Cc3coc(C4CC4)n3)c2)c2cnccc21", "observation-type": "pIC50", "endpoint-value": 7.68}
{"smiles-notation": "CC(C)n1nc(C(=O)c2ccnc(NC(=O)Cc3ccc(C#N)cc3)c2)c2cnccc21", "observation-type": "pIC50", "endpoint-value": 7.69}
{"smiles-notation": "CC(C)c1nc(C(=O)c2ccnc(NC(=O)Cn3ccc(C(F)(F)F)n3)c2)c2cnccn12", "observation-type": "pIC50", "endpoint-value": 7.78}
